Tested on: HL-60(TB) leukemia
method_description: NCI-60 one-dose screen, 48 h (100 = growth as untreated, 0 = no growth, -100 = all killed)
condition_summary: 10 µM unless noted
About 83,000 compounds went through this panel and 20% of them were active in at least one assay; those are over-represented in the sample as a whole.

{"molecule": "Cn1cc(-c2ccc3ncc(-c4ccc(CC(=O)Nc5cc(C(C)(C)C)no5)cc4)nc3c2)cn1", "growth [%]": 40.4}
{"molecule": "O=c1cc(-c2ccccc2)nc(SCc2nc3cc(Cl)c(Cl)cc3[nH]2)[nH]1", "growth [%]": 101}
{"molecule": "CC(C(C(=O)N1CCCCC1)N1CCCCC1)N1CCCCC1 (centres undefined)", "growth [%]": 104}
{"molecule": "CCN1CCN(CC(=O)Nc2nc3ccc(NCc4ccc(F)cc4)cc3s2)CC1", "growth [%]": 96.4}
{"molecule": "COc1ccc(/C=C/C(=O)c2ccc3cc(OC)c(OC)cc3c2)cc1OC", "growth [%]": 44.7}
{"molecule": "Oc1c(Cl)cc(Oc2cc(Cl)c(O)c(CN3CCOCC3)c2)cc1CN1CCOCC1", "growth [%]": 86.7}
{"molecule": "CC1=CC2C(C(O)CC3(C)C2CC(C)C32OCOC23COCO3)C2(C)C/C(=C/O)C(=O)C=C12 (centres undefined)", "growth [%]": -12.3}
{"molecule": "C=CC(=O)NC(O)C(Cl)(Cl)Cl (centres undefined)", "growth [%]": 97.7}
{"molecule": "COc1ccc2c(c1)OC(N)=C(C#N)C2c1ccc(F)cc1 (centres undefined)", "growth [%]": -14.7}
{"molecule": "Nc1c(C(=O)Nc2cccc([N+](=O)[O-])c2)sc2nc3c(cc12)C(O)CCC3 (centres undefined)", "growth [%]": 9.71}
{"molecule": "COc1ccc(N(C)c2ncnc3occ(C)c23)cc1", "growth [%]": -34.9}
{"molecule": "CN(C)c1ccc2[nH]c3c(C(N)=O)cc(=O)c(=O)c=3oc2c1", "growth [%]": -2.19}
{"molecule": "C=C(C)[C@@H]1CC[C@]2(C=O)CC[C@]3(C)[C@H](CC[C@@H]4[C@@]5(C)C/C(=C/c6cccnc6)C(=O)C(C)(C)[C@@H]5CC[C@]43C)[C@@H]12", "growth [%]": 25.9}
{"molecule": "CCc1ccc(Cc2cnc(NC(=O)c3cc(C)oc3C)s2)cc1", "growth [%]": -21.3}
{"molecule": "COc1cccc(/C=C/C(=O)c2c(C)nc3ccccc3c2/C=C/c2ccc(C)cc2)c1OC", "growth [%]": 36}
{"molecule": "CN1CCN(Cc2ccc(NC(=O)c3cncc(C#Cc4cnn5ccccc45)c3)cc2C(F)(F)F)CC1", "growth [%]": -21.3}
{"molecule": "C=C(CN1CC=CCC1)[C@@H]1CC[C@]2(CO)CC[C@]3(C)[C@H](CC[C@@H]4[C@@]5(C)CC[C@H](O)C(C)(C)[C@@H]5CC[C@]43C)[C@@H]12", "growth [%]": 99.9}
{"molecule": "CCc1ccc2c(c1)N(CCO)C1=C(C(=O)OC1)C2c1cc(OC)c(OC)c(OC)c1 (centres undefined)", "growth [%]": -26.4}
{"molecule": "O=C(O)c1ccc2c(c1)C(=O)N(Cc1ccccc1)C2=O", "growth [%]": 93.1}
